// provenance: patent US20240050428A1

For each record, write down the corresponding IC50.
# Tested on: MV4;11 cells
# Method Summary: Cell viability assay (CellTiter-Glo) in MV4;11 cells, alone or with gilteritinib
# Format: cell-based
# Conditions Used: Homo sapiens, MV4-11, 72 h, MV4;11 cells, compound with gilteritinib 10 nM, three days, CellTiter-Glo; read-out: MV4; 11 IC50 gilteritinib

q: Item under review: O=C1CCC(N2C(=O)c3ccc(NCCC[C@H]4C[C@H](n5cc(-c6ccccn6)cn5)C4)cc3C2=O)C(=O)N1 (some centres unmarked) . Reported IC50?
a: 10 to 100 nM

q: Endpoint output: IC50 of O=C1CCC(N2C(=O)c3ccc(NCCC[C@H]4C[C@H](n5cc(-c6cnc7c(C8CCOCC8)cccc7n6)cn5)C4)cc3C2=O)C(=O)N1 (some centres unmarked) . Value?
a: < 10 nM

q: Fill in the blank: the reported IC50 of Cc1cn(CCCCCCNc2ccc3c(c2)C(=O)N(C2CCC(=O)NC2=O)C3=O)nc1-c1cnc2ccccc2n1 (centres unmarked) is ____.
a: 100 to 1000 nM

q: Could you share which IC50 value was measured for O=C1CCC(N2C(=O)c3ccc(NCCCCCCn4cc(-c5cnc6ccc(C7CCNCC7)cc6n5)cn4)cc3C2=O)C(=O)N1 (centres unmarked) ?
a: < 10 nM

q: Which IC50 value belongs to O=C1CCC(N2C(=O)c3ccc(NC[C@H]4C[C@H](n5cc(-c6ccc7c(n6)CCC7)c(C6CC6)n5)C4)cc3C2=O)C(=O)N1 (some centres unmarked) ?
a: < 10 nM

q: So what's the measured IC50 for this one? Cc1c(-c2cnc3ccccc3n2)cnn1CCCCCCNc1ccc2c(c1)C(=O)N(C1CCC(=O)NC1=O)C2=O (centres unmarked)
a: 10 to 100 nM

q: Reported IC50 for CN1CCC(c2ccc3ncc(-c4cn(CCCCCCNc5ccc6c(c5)C(=O)N(C5CCC(=O)NC5=O)C6=O)nc4C4CC4)nc3c2)CC1 (centres unmarked) : what is it?
a: < 10 nM

q: Given the molecule CN(C)c1ccnc(-c2cn([C@H]3C[C@H](CNc4ccc5c(c4)C(=O)N(C4CCC(=O)NC4=O)C5=O)C3)nc2C2CC2)c1 (some centres unmarked) , what is its reported IC50?
a: > 1000 nM

q: If you can, please state the reported IC50 value of O=C1CCC(N2Cc3cc(OCCCCCC(=O)N4CCC(n5cc(-c6cnc7ccccc7n6)cn5)CC4)ccc3C2=O)C(=O)N1 (centres unmarked) .
a: < 10 nM

q: Requested read-out: IC50. Entry: CN1CCC(c2cnn([C@H]3C[C@H](CCCNc4ccc5c(c4)C(=O)N(C4CCC(=O)NC4=O)C5=O)C3)c2)CC1 (some centres unmarked)
a: > 1000 nM

q: Any idea what its IC50 is? The molecule is O=C1CCC(N2C(=O)c3ccc(NC[C@H]4C[C@H](n5cc(-c6cccc(NC7CCOCC7)n6)c(C6CC6)n5)C4)cc3C2=O)C(=O)N1 (some centres unmarked)
a: 10 to 100 nM

q: Reported IC50 for CN1CCN(c2ccc3ncc(-c4cnn([C@H]5C[C@H](CCCNc6ccc7c(c6)C(=O)N(C6CCC(=O)NC6=O)C7=O)C5)c4)nc3c2)CC12CC2 (some centres unmarked) : what is it?
a: 10 to 100 nM

q: Data request, read-out IC50, for CN1CC(c2cccc(-c3cn([C@H]4C[C@H](CNc5ccc6c(c5)C(=O)N(C5CCC(=O)NC5=O)C6=O)C4)nc3C3CC3)n2)C1 (some centres unmarked)
a: > 1000 nM

q: Can you share its IC50? I mean this molecule: CN1CCC(c2cccc3nc(-c4cnn([C@H]5C[C@H](CCCNc6ccc7c(c6)C(=O)N(C6CCC(=O)NC6=O)C7=O)C5)c4)cnc23)CC1 (some centres unmarked)
a: < 10 nM

q: Need IC50 of O=C1CCC(N2C(=O)c3ccc(NCCCCC(=O)N4CCC(n5cc(-c6cnc7ccc(C8=CCNCC8)cc7n6)cn5)CC4)cc3C2=O)C(=O)N1 (centres unmarked) , thanks.
a: < 10 nM

q: Recorded IC50 of Cc1nn([C@H]2C[C@H](CCCNc3ccc4c(c3)C(=O)N(C3CCC(=O)N(C)C3=O)C4=O)C2)cc1-c1cnc2ccccc2n1 (some centres unmarked) , please.
a: > 1000 nM

q: If you can, please state the reported IC50 value of CN1CCN(c2ccc3nc(-c4cnn([C@H]5C[C@@H](CCCNc6ccc7c(c6)C(=O)N(C6CCC(=O)NC6=O)C7=O)C5)c4)cnc3c2)CC1 (some centres unmarked) .
a: 10 to 100 nM

q: Reported IC50 for CN1CCN(c2cn([C@H]3C[C@H](CNc4ccc5c(c4)C(=O)N(C4CCC(=O)NC4=O)C5=O)C3)nc2C2CC2)CC1 (some centres unmarked) : what is it?
a: > 1000 nM

q: Recorded IC50 for O=C1CCC(N2C(=O)c3ccc(NCCC[C@H]4C[C@H](n5cc(-c6cnc7ccc(NC8COC8)cc7n6)cn5)C4)cc3C2=O)C(=O)N1 (some centres unmarked) , please?
a: < 10 nM

q: Look at this molecule and give its reported IC50. Cn1ncc2c(-c3cn([C@H]4C[C@H](CNc5ccc6c(c5)C(=O)N(C5CCC(=O)NC5=O)C6=O)C4)nc3C3CC3)nccc21 (some centres unmarked)
a: < 10 nM

q: What value of IC50 has been recorded for this entry: O=C1CCC(N2C(=O)c3ccc(NCCC[C@H]4C[C@H](n5cc(-c6cnc7cc(C8CCNCC8)ccc7n6)cn5)C4)cc3C2=O)C(=O)N1 (some centres unmarked)
a: < 10 nM

q: For the molecule shown here, O=C1CCC(N2C(=O)c3ccc(NCCCCCC(=O)N4CCC(n5cc(-c6cnc7ccc(C8=CCNCC8)cc7n6)cn5)CC4)cc3C2=O)C(=O)N1 (centres unmarked) , give the reported IC50.
a: < 10 nM

q: Which measured IC50 value corresponds to O=C1CCC(N2C(=O)c3ccc(NCCC[C@H]4C[C@@H](n5cc(-c6cnc7cc(N8CCNCC8)ccc7n6)cn5)C4)cc3C2=O)C(=O)N1 (some centres unmarked) ?
a: 10 to 100 nM

q: # lookup: IC50 of O=C1CCC(N2C(=O)c3ccc(NCCCCC(=O)N4CCC(c5cnc6ccccc6n5)CC4)cc3C2=O)C(=O)N1 (centres unmarked)
a: 100 to 1000 nM

q: I have this molecule here, O=C1CCC(N2C(=O)c3ccc(NCCC[C@H]4C[C@H](n5cc(-c6cnc7ccc(N8C[C@H]9C[C@@H]8CN9)cc7n6)cn5)C4)cc3C2=O)C(=O)N1 (some centres unmarked) , and I need its recorded IC50.
a: > 1000 nM

q: Entry CC(C)c1cccc(-c2cnn([C@H]3C[C@H](CCCNc4ccc5c(c4)C(=O)N(C4CCC(=O)NC4=O)C5=O)C3)c2)n1 (some centres unmarked) : reported IC50 = ?
a: 10 to 100 nM
